Across several studies, compounds have been characterized by their pIC50 on Rho-associated protein kinase 1 (Homo sapiens, UniProt Q13464); a selection follows.
pIC50: −log10 of the molar value.
outcome-measure: pIC50

{"columns": ["compound", "qualifier-symbol", "numeric-readout"],
 "data": [
  ["COc1cccc(C(CO)NC(=O)c2cccc(-c3ccc4[nH]nc(C)c4c3)c2)c1 (stereo not drawn)", "=", 7.05],
  ["COc1cc(C(=O)NCc2ccc(Br)cc2Cl)ccc1-c1cn[nH]c1", "=", 7.77],
  ["NOCC(=O)N[C@H]1CCN(S(=O)(=O)c2cccc3cncc(Cl)c23)C1", ">", 6.00],
  ["Cc1cncc2cccc(S(=O)(=O)N3CC[C@@H](N)C3)c12", ">", 6.00],
  ["COc1cc(C(=O)N[C@@H](Cc2ccccc2)C(N)=O)ccc1-c1cn[nH]c1", "=", 7.43],
  ["CCCC(=O)Nc1cccc(-c2nc(Nc3ccc4[nH]ncc4c3)c3ccc(OCCOC)cc3n2)c1", "<", 5.52],
  ["CN1C(=O)[C@H](Cc2ccc(-c3ccnc4[nH]ccc34)cc2)NC(=O)c2cc(Cl)ccc21", "=", 5.29],
  ["COc1cccc(C(CN)NC(=O)c2cc(-c3ccc4[nH]nc(C)c4c3)cc3cccnc23)c1 (stereo not drawn)", "=", 5.85],
  ["NCC1CCN(S(=O)(=O)c2cccc3cncc(Cl)c23)C1 (stereo not drawn)", ">", 6.00],
  ["O=C(Nc1ccc(-c2ccncc2)cc1)N[C@H](CO)c1ccccc1", "=", 6.91],
  ["COc1cc(-c2cn[nH]c2)ccc1C(=O)N[C@H](C)c1ccc(F)cc1", "=", 8.15],
  ["COc1ccc(F)c(C(C)NC(=O)c2ccc(-c3cn[nH]c3)c(OC)c2)c1 (stereo not drawn)", "=", 6.76],
  ["COc1cccc(C(C)NC(=O)c2ccc(-c3cn[nH]c3)c(OC)c2)n1 (stereo not drawn)", "=", 7.13],
  ["CC1COCCN1C(=O)c1cc2ccc(-c3nccc(Nc4ccc(-c5cn[nH]c5)cc4)n3)cc2[nH]1 (stereo not drawn)", "=", 5.36],
  ["COc1cccc(C(CN)NC(=O)c2cccc(-c3ccc4[nH]ncc4c3)c2)c1 (stereo not drawn)", "=", 7.60],
  ["O=S(=O)(c1cccc2cncc(Br)c12)N1CC[C@H](NCc2ccc(O)cc2)C1", ">", 6.00],
  ["COc1cccc(C(CO)NC(=O)c2cc(-c3ccc4[nH]ncc4c3)ccc2F)c1 (stereo not drawn)", "=", 6.56],
  ["COC[C@@H](NC(=O)c1ccc(-c2cn[nH]c2)c(C(C)O)c1)c1ccccc1 (stereo partly drawn)", "=", 6.54],
  ["COc1cc(C(=O)NCc2cccc(F)c2)ccc1-c1cn[nH]c1", "=", 8.07],
  ["COc1cccc([C@@H](CN)NC(=O)c2cc(-c3ccc4[nH]nc(C)c4c3)ccn2)c1", "=", 7.89],
  ["Cn1c(C(=O)Nc2ccncc2Cl)cc2ccc(-c3nccc(Nc4ccc5[nH]ncc5c4)n3)cc21", "=", 6.00],
  ["Cn1c(C(=O)N2CC(C#N)C2)cc2c1CN(c1nccc(Nc3ccc(-c4cn[nH]c4)cc3)n1)CC2", "<", 5.35],
  ["O=C(Nc1cccnc1)c1cc2ccc(-c3nccc(Nc4ccc(-c5cn[nH]c5)cc4)n3)cc2[nH]1", "=", 5.22],
  ["COc1cccc([C@@H](C)NC(=O)c2ccc(-c3cn[nH]c3)cc2F)c1", "=", 7.36],
  ["COc1cc(C(=O)NCc2cccc(N(C)C(C)=O)c2)ccc1-c1cn[nH]c1", "=", 5.39],
  ["Cn1c(C(=O)N2CC(F)(F)C2)cc2c1CN(c1ncc(Cl)c(Nc3ccc(-c4c[nH]nc4F)cc3)n1)CC2", "<", 5.35],
  ["N[C@H]1CCN(S(=O)(=O)c2cccc3cncc(Cl)c23)C1", ">", 6.00],
  ["CCNC(=O)c1cccc(CNC(=O)c2ccc(-c3cn[nH]c3)c(OC)c2)c1", "=", 8.62]
]}
